# Test system: Klebsiella pneumoniae
# Measurement protocol: Antibacterial activity against Klebsiella pneumoniae KC-1 assessed as growth inhibition at 128 to 0.002 mg/L incubated for 18 hrs at 37 degC by agar dilution method
# Type: functional
# Condition summary: KC-1, 18 h
Reported metric: MIC
State the value, then name its unit.

get_value(item= CCCNC1CN(c2c(F)cc3c(=O)c(C(=O)O)cn(-c4nc(N)c(F)cc4F)c3c2C)C1 , readout=MIC) returns 0.21 µg/mL

get_value(item= Cc1c(N2CC(NC(C)C)C2)c(F)cc2c(=O)c(C(=O)O)cn(-c3nc(N)c(F)cc3F)c12 , readout=MIC) returns 0.17 µg/mL

get_value(item= C[C@H]1COc2c(N3CCN(C)CC3)c(F)cc3c(=O)c(C(=O)O)cn1c23.C[C@H]1COc2c(N3CCN(C)CC3)c(F)cc3c(=O)c(C(=O)O)cn1c23.O , readout=MIC) returns 0.12 µg/mL

get_value(item= Cc1c(N2CC(N)C2)c(F)cc2c(=O)c(C(=O)O)cn(-c3nc(N)c(F)cc3F)c12 , readout=MIC) returns 0.061 µg/mL

get_value(item= Cc1c(N2CC(NC(C)(C)C)C2)c(F)cc2c(=O)c(C(=O)O)cn(-c3nc(N)c(F)cc3F)c12 , readout=MIC) returns 0.57 µg/mL

get_value(item= CNC1CN(c2c(F)cc3c(=O)c(C(=O)O)cn(-c4nc(N)c(F)cc4F)c3c2C)C1 , readout=MIC) returns 0.077 µg/mL

get_value(item= CCNC1CN(c2c(F)cc3c(=O)c(C(=O)O)cn(-c4nc(N)c(F)cc4F)c3c2C)C1 , readout=MIC) returns 0.12 µg/mL

* * *

# Test system: Enterobacter cloacae
# Measurement protocol: Antibacterial activity against Enterobacter cloacae IFO13535 assessed as growth inhibition at 128 to 0.002 mg/L incubated for 18 hrs at 37 degC by agar dilution method
# Type: functional
# Condition summary: IFO13535, 18 h
Reported metric: MIC (µg/mL)
Report only the number, with the unit µg/mL understood.

Bench note, Enterobacter cloacae: entry CCCNC1CN(c2c(F)cc3c(=O)c(C(=O)O)cn(-c4nc(N)c(F)cc4F)c3c2C)C1 , its MIC = 0.21

Bench note, Enterobacter cloacae: entry CNC1CN(c2c(F)cc3c(=O)c(C(=O)O)cn(-c4nc(N)c(F)cc4F)c3c2C)C1 , its MIC = 0.077

Bench note, Enterobacter cloacae: entry C[C@H]1COc2c(N3CCN(C)CC3)c(F)cc3c(=O)c(C(=O)O)cn1c23.C[C@H]1COc2c(N3CCN(C)CC3)c(F)cc3c(=O)c(C(=O)O)cn1c23.O , its MIC = 0.12

Bench note, Enterobacter cloacae: entry CCNC1CN(c2c(F)cc3c(=O)c(C(=O)O)cn(-c4nc(N)c(F)cc4F)c3c2C)C1 , its MIC = 0.12

Bench note, Enterobacter cloacae: entry Cc1c(N2CC(NC(C)C)C2)c(F)cc2c(=O)c(C(=O)O)cn(-c3nc(N)c(F)cc3F)c12 , its MIC = 0.17

Bench note, Enterobacter cloacae: entry Cc1c(N2CC(N)C2)c(F)cc2c(=O)c(C(=O)O)cn(-c3nc(N)c(F)cc3F)c12 , its MIC = 0.061

Bench note, Enterobacter cloacae: entry Cc1c(N2CC(NC(C)(C)C)C2)c(F)cc2c(=O)c(C(=O)O)cn(-c3nc(N)c(F)cc3F)c12 , its MIC = 0.57

* * *

# Measurement protocol: Drug excretion in Sprague-Dawley rat urine at 5 mg/kg, iv after 24 hrs by HPLC
# Assay type: ADME, organism-based
# Condition summary: read-out: Drug excretion
Reported metric: dose excreted at 24 h (%)
Report only the number, with the unit % understood.

get_value(item= Cc1c(N2CC(N)C2)c(F)cc2c(=O)c(C(=O)O)cn(-c3nc(N)c(F)cc3F)c12 , readout=dose excreted at 24 h) returns 44

get_value(item= CNC1CN(c2c(F)cc3c(=O)c(C(=O)O)cn(-c4nc(N)c(F)cc4F)c3c2C)C1 , readout=dose excreted at 24 h) returns 49

get_value(item= CCNC1CN(c2c(F)cc3c(=O)c(C(=O)O)cn(-c4nc(N)c(F)cc4F)c3c2C)C1 , readout=dose excreted at 24 h) returns 41

* * *

# System: Serratia marcescens
# Measurement protocol: Antibacterial activity against Serratia marcescens T-55 assessed as growth inhibition at 128 to 0.002 mg/L incubated for 18 hrs at 37 degC by agar dilution method
# Type: functional
# Condition summary: T-55, 18 h
Reported metric: MIC (µg/mL)
Report only the number, with the unit µg/mL understood.

get_value(item= Cc1c(N2CC(NC(C)C)C2)c(F)cc2c(=O)c(C(=O)O)cn(-c3nc(N)c(F)cc3F)c12 , readout=MIC) returns 0.17

get_value(item= CCNC1CN(c2c(F)cc3c(=O)c(C(=O)O)cn(-c4nc(N)c(F)cc4F)c3c2C)C1 , readout=MIC) returns 0.12

get_value(item= CNC1CN(c2c(F)cc3c(=O)c(C(=O)O)cn(-c4nc(N)c(F)cc4F)c3c2C)C1 , readout=MIC) returns 0.077

* * *

# Measurement protocol: Drug excretion in Sprague-Dawley rat urine at 10 mg/kg, po after 24 hrs by HPLC
# Type: ADME, organism-based
# Condition summary: read-out: Drug excretion
I'd appreciate it if you could supply dose excreted at 24 h values for the items below.
Report only the number, with the unit % understood.

get_value(item= Cc1c(N2CC(NC(C)C)C2)c(F)cc2c(=O)c(C(=O)O)cn(-c3nc(N)c(F)cc3F)c12 , readout=dose excreted at 24 h) returns 24

get_value(item= CNC1CN(c2c(F)cc3c(=O)c(C(=O)O)cn(-c4nc(N)c(F)cc4F)c3c2C)C1 , readout=dose excreted at 24 h) returns 13

get_value(item= CCCNC1CN(c2c(F)cc3c(=O)c(C(=O)O)cn(-c4nc(N)c(F)cc4F)c3c2C)C1 , readout=dose excreted at 24 h) returns 17

get_value(item= CCNC1CN(c2c(F)cc3c(=O)c(C(=O)O)cn(-c4nc(N)c(F)cc4F)c3c2C)C1 , readout=dose excreted at 24 h) returns 20

get_value(item= Cc1c(N2CC(N)C2)c(F)cc2c(=O)c(C(=O)O)cn(-c3nc(N)c(F)cc3F)c12 , readout=dose excreted at 24 h) returns 4

* * *

# Test system: Proteus vulgaris
# Measurement protocol: Antibacterial activity against Proteus vulgaris IFO3167 assessed as growth inhibition at 128 to 0.002 mg/L incubated for 18 hrs at 37 degC by agar dilution method
# Format: functional
# Condition summary: IFO3167, 18 h
Reported metric: MIC (µg/mL)
Report only the number, with the unit µg/mL understood.

get_value(item= CCNC1CN(c2c(F)cc3c(=O)c(C(=O)O)cn(-c4nc(N)c(F)cc4F)c3c2C)C1 , readout=MIC) returns 0.12

get_value(item= Cc1c(N2CC(NC(C)(C)C)C2)c(F)cc2c(=O)c(C(=O)O)cn(-c3nc(N)c(F)cc3F)c12 , readout=MIC) returns 0.57

get_value(item= Cc1c(N2CC(N)C2)c(F)cc2c(=O)c(C(=O)O)cn(-c3nc(N)c(F)cc3F)c12 , readout=MIC) returns 0.061

get_value(item= C[C@H]1COc2c(N3CCN(C)CC3)c(F)cc3c(=O)c(C(=O)O)cn1c23.C[C@H]1COc2c(N3CCN(C)CC3)c(F)cc3c(=O)c(C(=O)O)cn1c23.O , readout=MIC) returns 0.12

get_value(item= Cc1c(N2CC(NC(C)C)C2)c(F)cc2c(=O)c(C(=O)O)cn(-c3nc(N)c(F)cc3F)c12 , readout=MIC) returns 0.17

get_value(item= CNC1CN(c2c(F)cc3c(=O)c(C(=O)O)cn(-c4nc(N)c(F)cc4F)c3c2C)C1 , readout=MIC) returns 0.077

get_value(item= CCCNC1CN(c2c(F)cc3c(=O)c(C(=O)O)cn(-c4nc(N)c(F)cc4F)c3c2C)C1 , readout=MIC) returns 0.21

* * *

I'd appreciate it if you could supply Fa at 24 h values for the items below.
# Measurement protocol: Oral drug absorption in Sprague-Dawley rat at 10 mg/kg, po after 24 hrs by HPLC
# Assay type: ADME, organism-based
# Condition summary: in vivo
Report only the number, with the unit % understood.

get_value(item= CNC1CN(c2c(F)cc3c(=O)c(C(=O)O)cn(-c4nc(N)c(F)cc4F)c3c2C)C1 , readout=Fa at 24 h) returns 31

get_value(item= Cc1c(N2CC(N)C2)c(F)cc2c(=O)c(C(=O)O)cn(-c3nc(N)c(F)cc3F)c12 , readout=Fa at 24 h) returns 9.6

get_value(item= CCNC1CN(c2c(F)cc3c(=O)c(C(=O)O)cn(-c4nc(N)c(F)cc4F)c3c2C)C1 , readout=Fa at 24 h) returns 76
